Test system: Blood
Test: Effect on blood coagulation in human blood assessed as increase in prothrombin time at 300 uM incubated for 3 mins followed by CaCl2 addition by PT reagent based assay relative to control
Format: ADME, tissue-based
Settings: 0.05 h
Quantity: Activity
Quote the value and follow it with the unit of measurement.

Requested read-out Activity, target or system Blood, entry "Nc1nc(-c2ccccn2)nn1C(=O)c1ccc2ccccc2c1" 575%

# value lookup — system Blood, readout Activity, item "COc1ccc(C(=O)n2nc(-c3ccccn3)nc2N)cc1" 14%

Provide the documented Activity with Blood as the system for "Cc1cccc(C(=O)n2nc(-c3ccccn3)nc2N)c1" 12%

Please state recorded Activity (tested on Blood) of "Nc1nc(-c2ccncc2)nn1C(=O)C1CCCCC1" 7%

Any idea what Activity came out for "Nc1nc(-c2ccccc2)nn1C(=O)c1ccccc1" on Blood? 5%

Tell me reported Activity for "Nc1nc(-c2ccccn2)nn1C(=O)c1ccc(NC(=O)c2ccccc2)cc1" , tested with Blood. 2%

---

Target: Monoglyceride lipase (Homo sapiens)
Sequence (Q99685 whole entry): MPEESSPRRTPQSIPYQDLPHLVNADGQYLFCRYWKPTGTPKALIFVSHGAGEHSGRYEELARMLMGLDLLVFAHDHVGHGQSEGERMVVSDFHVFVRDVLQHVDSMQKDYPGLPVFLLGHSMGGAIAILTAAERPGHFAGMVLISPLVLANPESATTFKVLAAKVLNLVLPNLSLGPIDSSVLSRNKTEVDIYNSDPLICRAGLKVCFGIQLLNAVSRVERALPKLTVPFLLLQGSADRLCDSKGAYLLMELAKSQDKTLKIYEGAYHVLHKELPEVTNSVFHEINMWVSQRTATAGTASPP
Test: Inhibition of human recombinant MAGL using 1,3-dihydroxypropan-2-yl 4-pyren-1-ylbutanoate as substrate measured after 45 mins by reverse-phase HPLC-based fluorescence assay
Quantity: IC50

Hello, I am looking for reported IC50 with Monoglyceride lipase (Homo sapiens) for "Nc1nc(-c2ccccn2)nn1C(=O)c1ccccc1" . Could you help? > 5 µM

Param readout= IC50; system= Monoglyceride lipase (Homo sapiens); entry= "Nc1nc(-c2ccccn2)nn1C(=O)c1ccc2ccccc2c1" ; returns value. > 5 µM

Return IC50 measured with Monoglyceride lipase (Homo sapiens) given this molecule: "Nc1nc(-c2ccccn2)nn1C(=O)c1cccc2ccccc12" > 5 µM

---

Biological target: UniProtKB P00734
Assay: Inhibition of human coagulation factor alpha-thrombin using Boc-Val-Pro-Arg-AMC as fluorogenic substrate measured at 1 min interval for 1 hr by fluorometric assay
Quantity: IC50 (nM)
Numbers only here, please. The scale is nM.

What value of IC50 has been reported for the following compound? "Nc1nc(-c2ccccn2)nn1C(=O)c1cccnc1" 494

Reported IC50, compound "Nc1nc(-c2ccccn2)nn1C(=O)c1ccc(F)cc1" : ____ 481

Please report the recorded IC50 for "Nc1nc(-c2ccccn2)nn1C(=O)/C=C/c1ccccc1" . 1560

What value of measured IC50 is listed for "Nc1nc(-c2ccccn2)nn1C(=O)c1ccc(NC(=O)C(F)(F)F)cc1" ? 3390

Find the recorded IC50 belonging to "CCc1ccc(C(=O)n2nc(-c3ccccn3)nc2N)cc1" and report it. 308

For the compound "Nc1nc(-c2ccccn2)nn1C(=O)c1ccc(C(F)(F)F)cc1" , what IC50 is on record? 4570

Could you share which IC50 value was measured for "Nc1nc(-c2ccccn2)nn1C(=O)c1cccc2ccccc12" ? 375

Consider the compound shown here: "Nc1nc(-c2ccccn2)nn1C(=O)Cc1ccccc1" What is its recorded IC50? 509

Can you look up the measured IC50 of "Nc1nc(-c2ccccn2)nn1C(=O)[C@H]1CCCc2ccccc21" for me? 421

---

Target: Fatty-acid amide hydrolase 1 (Rattus norvegicus, UniProt P97612)
Sequence (P97612 whole entry): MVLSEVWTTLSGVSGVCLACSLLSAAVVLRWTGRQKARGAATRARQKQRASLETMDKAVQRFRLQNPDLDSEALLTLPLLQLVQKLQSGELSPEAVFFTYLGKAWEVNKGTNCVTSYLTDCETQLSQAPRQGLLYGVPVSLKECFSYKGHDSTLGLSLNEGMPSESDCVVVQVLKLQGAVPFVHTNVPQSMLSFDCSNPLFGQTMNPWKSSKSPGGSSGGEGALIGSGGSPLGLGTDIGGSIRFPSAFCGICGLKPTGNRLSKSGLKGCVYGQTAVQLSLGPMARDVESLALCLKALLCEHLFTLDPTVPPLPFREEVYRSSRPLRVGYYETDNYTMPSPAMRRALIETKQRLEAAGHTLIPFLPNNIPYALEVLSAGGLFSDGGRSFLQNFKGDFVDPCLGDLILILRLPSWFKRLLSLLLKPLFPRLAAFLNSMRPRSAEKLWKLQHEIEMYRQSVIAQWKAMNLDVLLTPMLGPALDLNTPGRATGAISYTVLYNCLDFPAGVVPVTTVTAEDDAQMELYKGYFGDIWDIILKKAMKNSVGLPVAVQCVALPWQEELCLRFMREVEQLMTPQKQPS
Assay: Inhibition of FAAH in rat brain membrane using N-(2-hydroxyethyl)-4-pyren-1-ylbutanamide as substrate measured after 60 mins by reverse-phase HPLC-based fluorescence assay
pIC50: −log10 of the molar value.
Can you tell me pIC50 for the items I'm about to list?

Which pIC50 reading was recorded for the compound "Nc1nc(-c2ccccn2)nn1C(=O)c1ccc2ccccc2c1" ? < 5.30

Look up pIC50 for this compound: "Nc1nc(-c2ccccn2)nn1C(=O)c1cccc2ccccc12" < 5.30

Request the reported pIC50 associated with "Nc1nc(-c2ccccn2)nn1C(=O)c1ccccc1" < 5.30

---

Target: Coagulation factor XII (Homo sapiens) (UniProt P00748)
Sequence (P00748 20-372 limits assumed): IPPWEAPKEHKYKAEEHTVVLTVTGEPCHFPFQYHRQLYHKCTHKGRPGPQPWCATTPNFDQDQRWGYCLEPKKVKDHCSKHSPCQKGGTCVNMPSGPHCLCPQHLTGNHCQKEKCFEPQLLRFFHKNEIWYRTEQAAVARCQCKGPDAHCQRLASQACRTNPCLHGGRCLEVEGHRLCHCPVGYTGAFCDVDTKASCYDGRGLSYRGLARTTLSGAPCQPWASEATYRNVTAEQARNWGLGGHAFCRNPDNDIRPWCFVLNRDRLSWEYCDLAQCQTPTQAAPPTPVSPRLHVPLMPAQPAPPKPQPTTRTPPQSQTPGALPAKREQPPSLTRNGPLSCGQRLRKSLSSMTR
Sequence (P00748 373-615 limits assumed): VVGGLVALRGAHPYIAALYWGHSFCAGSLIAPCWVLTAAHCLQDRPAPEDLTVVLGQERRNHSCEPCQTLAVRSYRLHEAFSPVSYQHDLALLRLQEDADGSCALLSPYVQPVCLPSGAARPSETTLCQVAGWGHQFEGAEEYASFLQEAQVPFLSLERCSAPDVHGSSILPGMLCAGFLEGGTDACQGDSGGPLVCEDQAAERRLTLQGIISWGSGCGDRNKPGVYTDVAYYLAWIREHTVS
Assay: Inhibition of human coagulation factor XIIA using Boc-Gln-Gly-Arg-AMC as fluorogenic substrate at 100 nM measured at 1 min interval for 1 hr by fluorometric assay relative to control
Quantity: inhibition (%)
Answer with a number only, understood to be in %.

Any idea what inhibition was measured for "Nc1nc(-c2ccccn2)nn1C(=O)c1cccc2ccccc12" ? 77

Find the recorded inhibition belonging to "Nc1nc(-c2ccccn2)nn1C(=O)[C@H]1CCCc2ccccc21" and report it. 70

Would you kindly share the measured inhibition for "Nc1nc(-c2ccccn2)nn1C(=O)c1ccc2ccccc2c1" ? 19

Would you mind telling me what inhibition value was observed for "Nc1nc(-c2ccccn2)nn1C(=O)Cc1ccccc1I" ? 47

---

Test system: Blood
Experiment: Effect on blood coagulation in human blood assessed as increase in prothrombin time at 300 uM incubated for 3 mins followed by CaCl2 addition by PT reagent based assay relative to control
Assay type: ADME, tissue-based
Conditions: 0.05 h
Quantity: Activity (%)
Give the quantity in %, number only.

Param readout = Activity; param system = Blood; param query = [H]/N=C(/N)c1ccc(NCc2nc3cc(C(=O)N(CCC(=O)O)c4ccccn4)ccc3n2C)cc1 [DABIGATRAN] ; response: value 539

Which Activity is reported with Blood for this entry: "Nc1nc(-c2ccccn2)nn1C(=O)[C@H]1CCCc2ccccc21" ? 7

Record lookup: for Blood, what Activity belongs to "Nc1nc(-c2ccccn2)nn1C(=O)Cc1ccccc1I" ? 6

Checklist item: Activity tested on Blood, entry "Nc1nc(-c2ccccn2)nn1C(=O)c1ccc(F)cc1" , value? 8

Notebook: pull reported Activity for Blood, entry "Cc1ccc(S(=O)(=O)n2nc(-c3ccncc3)nc2N)cc1" 2

---

System: Blood
Assay: Effect on blood coagulation in human blood assessed as increase in prothrombin time at 300 uM incubated for 3 mins followed by CaCl2 addition by PT reagent based assay relative to control
Assay type: ADME, tissue-based
Details: 0.05 h
Quantity: Activity (%)
Express your answer in %, writing the number without its unit.

Any idea what its Activity is? The compound is "Nc1nc(Nc2cccnc2)nn1C(=O)c1ccccc1" 2

Looking for the measured Activity of "Nc1n[nH]c(-c2ccncc2)n1" , can you help? 1

Suppose we examine the compound "Nc1nc(-c2ccccn2)nn1C(=O)CNC(=O)c1ccccc1" ; what Activity value has been reported? 3

Which value of Activity has been reported for "Nc1nc(-c2ccccn2)nn1C(=O)c1ccc([N+](=O)[O-])cc1" in the records? 3

I'd like to know its Activity. The compound in question is O=C(NC[C@H]1CN(c2ccc(N3CCOCC3=O)cc2)C(=O)O1)c1ccc(Cl)s1 [RIVAROXABAN] 1302

I am curious: what Activity value has been reported for "Nc1nc(-c2ccccn2)nn1C(=O)c1ccccc1" ? 12

What does the data say about its Activity? Entry: "Nc1nc(-c2ccccn2)nn1C(=O)c1cccc2ccccc12" 14

Bench note: what Activity did "Cc1ccc(C(=O)n2nc(-c3ccccn3)nc2N)cc1C" show? 48

# query: Activity of entry "CCc1ccc(C(=O)n2nc(-c3ccccn3)nc2N)cc1" 6

Suppose we examine the compound "Nc1nc(-c2ccncc2)nn1C(=O)c1ccccc1" ; what Activity value has been reported? 2

Value lookup for Activity; key = "Nc1nc(-c2ccccn2)nn1C(=O)c1ccc(Br)cc1" 16

Need Activity of "Nc1nc(-c2ccccn2)nn1C(=O)c1ccc(C(F)(F)F)cc1" , thanks. 8

---

Target: Plasminogen (Homo sapiens)
Sequence (P00747 97-580 limits assumed): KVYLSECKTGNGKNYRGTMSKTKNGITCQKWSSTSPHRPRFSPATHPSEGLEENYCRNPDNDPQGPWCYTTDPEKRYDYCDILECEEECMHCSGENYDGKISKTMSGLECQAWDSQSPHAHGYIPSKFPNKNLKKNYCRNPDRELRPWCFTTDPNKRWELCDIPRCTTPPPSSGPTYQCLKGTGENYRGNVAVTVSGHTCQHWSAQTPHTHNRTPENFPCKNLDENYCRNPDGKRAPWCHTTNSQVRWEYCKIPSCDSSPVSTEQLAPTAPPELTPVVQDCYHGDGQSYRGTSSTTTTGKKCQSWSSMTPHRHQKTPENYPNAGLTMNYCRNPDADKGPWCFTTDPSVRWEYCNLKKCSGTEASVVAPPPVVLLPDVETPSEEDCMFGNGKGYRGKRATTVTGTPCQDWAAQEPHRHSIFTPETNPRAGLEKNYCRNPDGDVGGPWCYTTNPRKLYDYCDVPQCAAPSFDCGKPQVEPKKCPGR
Sequence (P00747 581-810 limits assumed): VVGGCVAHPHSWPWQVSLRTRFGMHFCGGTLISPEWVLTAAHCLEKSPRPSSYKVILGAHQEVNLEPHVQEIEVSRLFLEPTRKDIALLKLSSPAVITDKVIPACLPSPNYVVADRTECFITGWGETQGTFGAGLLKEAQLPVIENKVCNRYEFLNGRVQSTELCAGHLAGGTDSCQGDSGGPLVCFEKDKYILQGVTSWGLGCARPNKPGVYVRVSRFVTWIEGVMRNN
pIC50: −log10 of the molar value.
Quantity: pIC50

Give its pIC50 value. Item: "Nc1nc(-c2ccccn2)nn1C(=O)Cc1ccccc1I" < 5.30

---

Target: Coagulation factor XII (Homo sapiens)
Experiment: Inhibition of human coagulation factor XIIA in presence of Boc-Gln-Gly-Arg-AMC as fluorogenic substrate at 1 uM measured at 1 min interval for 1 hr by fluorometric assay relative to control
Quantity: inhibition (%)
Could you give me the number in %? Just the number is fine.

Consider the compound "Nc1nc(-c2ccccn2)nn1C(=O)c1ccc(F)cc1" and give its measured inhibition. 79

Reported inhibition, compound "Nc1nc(-c2ccccn2)nn1C(=O)C1CCCCC1" : ____ 11

# get_value(readout='inhibition', item= "Nc1nc(-c2ccccn2)nn1C(=O)/C=C/c1ccccc1" ) 21

What does the data say about its inhibition? Entry: "Nc1nc(-c2ccccn2)nn1C(=O)CNC(=O)c1ccccc1" 20

Need inhibition of "O=C(NC[C@H]1CN(c2ccc(N3CCOCC3=O)cc2)C(=O)O1)c1ccc(Cl)s1" , thanks. -3

Requested field: inhibition. Item: "Nc1nc(-c2ccccn2)nn1C(=O)[C@H]1CCCc2ccccc21" 96

For the compound "Nc1nc(-c2ccccn2)nn1C(=O)Cc1ccccc1I" , what inhibition is on record? 89

Look up inhibition for this compound: "Nc1nc(-c2ccccn2)nn1C(=O)c1ccccc1" 81

Query: inhibition; subject: "CCc1ccc(C(=O)n2nc(-c3ccccn3)nc2N)cc1" 85

Item under review: "Nc1nc(-c2ccccn2)nn1C(=O)c1ccc(NC(=O)c2ccccc2)cc1" . Reported inhibition? 89

Fill in: inhibition of "Nc1nc(-c2ccccn2)nn1C(=O)c1ccc([N+](=O)[O-])cc1" is ___ 29

Which inhibition value is on record for "COc1ccc(C(=O)n2nc(-c3ccccn3)nc2N)cc1" ? 80

Form field: reported inhibition of "Cn1c(CNc2ccc(C(=N)N)cc2)nc2cc(C(=O)N(CCC(=O)O)c3ccccn3)ccc21" -1

Which inhibition value is on record for "Cc1cccc(C(=O)n2nc(-c3ccccn3)nc2N)c1" ? 83

# lookup: inhibition of "Nc1nc(-c2ccccn2)nn1C(=O)Cc1ccccc1" 87

GET /values?readout=inhibition&item= "Nc1nc(-c2ccccn2)nn1C(=O)c1ccco1" 54

# query: inhibition of entry "Nc1nc(-c2ccccn2)nn1C(=O)c1ccc(NC(=O)C(F)(F)F)cc1" 89

Name the recorded inhibition for "Nc1nc(-c2ccccn2)nn1C(=O)c1ccc(Br)cc1" . 58

Could you tell me which inhibition is on file for "Cc1ccc(C(=O)n2nc(-c3ccccn3)nc2N)cc1C" ? 92

Fill in the blank: the reported inhibition of "Nc1nc(-c2ccccn2)nn1C(=O)c1cccc2ccccc12" is ____. 98

Sample "Nc1nc(-c2ccccn2)nn1C(=O)c1ccc(C(F)(F)F)cc1" — what was its inhibition? 14

Give the measured inhibition of "Nc1nc(-c2ccccn2)nn1C(=O)C1CCOCC1" . 1

What does the data say about its inhibition? Entry: "Nc1nc(-c2ccccn2)nn1C(=O)c1cccnc1" 43

Entry "Nc1nc(-c2ccccn2)nn1C(=O)c1ccccc1[N+](=O)[O-]" has what inhibition? 43

Bench note: what inhibition did "Nc1nc(-c2ccccn2)nn1C(=O)c1ccc2ccccc2c1" show? 77
